Reference for the values: ChEMBL document CHEMBL1124397

- Assayed System: GABA-A receptor; anion channel (Rattus norvegicus) (UniProt O09028+P15431+P18506+P18508+P19969+P20236+P23574+P23576+P28471+P28473+P30191+P62813+P63079+P63138+Q91ZM7+Q9ES14)
- Assay Remarks: Antagonism of mercaptopropionic acid (MPA) induced convulsions in mouse
- Assay type: functional, organism-based
Observable: ED50

Query `CN(C)/C=C1\C(=O)N(c2cccc(Cl)c2)c2cc(Cl)ccc21` yields ED50 of > 100 mg/kg

Query `C/C(=C1/C(=O)N(c2ccccc2)c2cc(Cl)ccc21)N(C)C` yields ED50 of 35.9 mg/kg

Query `O=C1/C(=C\N2CCOCC2)c2ccccc2N1c1cccc(Cl)c1` yields ED50 of > 100 mg/kg

Query `C/C(=C1/C(=O)N(c2cccc(Cl)c2)c2ccccc21)N(C)C` yields ED50 of 13.3 mg/kg

Query `Cc1cccc(N2C(=O)/C(=C\N(C)C)c3ccccc32)c1` yields ED50 of 14.1 mg/kg

Query `O=C1/C(=C2/CCCN2Cc2ccccc2)c2ccccc2N1c1cccc(Cl)c1` yields ED50 of > 100 mg/kg

Query `COc1ccc(N2C(=O)/C(=C3/CCCN3C)c3ccccc32)cc1F` yields ED50 of 5.6 mg/kg

Query `CN(C)/C=C1\C(=O)N(c2ccc(N(C)C)cc2)c2ccccc21` yields ED50 of > 100 mg/kg

Query `CN(C)/C=C1\C(=O)N(c2cccc(F)c2)c2ccccc21` yields ED50 of 39.9 mg/kg

Query NC(=O)CCC/N=C(\c1ccc(Cl)cc1)c1cc(F)ccc1O [PROGABIDE] yields ED50 of > 100 mg/kg

Query `COc1ccc(N2C(=O)/C(=C(/C)N(C)C)c3ccccc32)cc1` yields ED50 of > 100 mg/kg

Query `CN(C)/C=C1\C(=O)N(c2cccc(C=O)c2)c2ccccc21` yields ED50 of > 100 mg/kg

Query `CN(C)/C=C1\C(=O)N(c2cccc(Cl)c2)c2c(Cl)cccc21` yields ED50 of > 100 mg/kg

Query `N=Cc1c(O)n(-c2cccc(Cl)c2)c2ccccc12` yields ED50 of 22.1 mg/kg

Query `CCOc1cccc(N2C(=O)/C(=C\N(C)C)c3ccccc32)c1` yields ED50 of 27.9 mg/kg

Query `CN(C)/C=C1\C(=O)N(c2cccc(C#N)c2)c2ccccc21` yields ED50 of > 100 mg/kg

Query `CN1CCC/C1=C1/C(=O)N(c2cccc(C#N)c2)c2ccccc21` yields ED50 of > 100 mg/kg

Query `O=C1/C(=C\n2ccnc2)c2ccccc2N1c1cccc(Cl)c1` yields ED50 of > 100 mg/kg

Query `CN(C)/C=C1\C(=O)N(c2ccccc2)c2ccccc21` yields ED50 of > 100 mg/kg

Query `O=C1/C(=C\N2CCCCC2)c2ccccc2N1c1cccc(Cl)c1` yields ED50 of > 56 mg/kg

Query `CN1C(=O)CN=C(c2ccccc2)c2cc(Cl)ccc21` yields ED50 of 0.7 mg/kg

Query `CN(C)/C(=C1\C(=O)N(c2cccc(Cl)c2)c2ccccc21)c1ccccc1` yields ED50 of > 100 mg/kg

Query `CC(=N)c1c(O)n(-c2ccccc2)c2cc(Cl)ccc12` yields ED50 of > 56 mg/kg

Query `CN(C)/C=C1\C(=O)N(c2cccc([N+](=O)[O-])c2)c2ccccc21` yields ED50 of > 100 mg/kg

Query `CC(=N)c1c(O)n(-c2cccc(Cl)c2)c2ccccc12` yields ED50 of > 100 mg/kg
